// provenance: ChEMBL document CHEMBL3046938

So I've got a bunch of compounds here, and I need their EC90 values.
Tested on: Rhizoctonia solani
Assay: Fungicidal activity against Rhizoctonia solani assessed as mycelial growth inhibition in potato dextrose agar at 24 +/- 0.5 degC
Assay type: functional, organism-based
Unit µg/mL implied. Number only.

Short answer for O=C(Nc1cc(Cl)ccc1Cl)NS(=O)(=O)C1CCCCCCCCCCC1=O (centres undefined) : EC90 was 106

Given item Cc1ccc(NC(=O)NS(=O)(=O)C2CCCCCCCCCCC2=O)cc1C (centres undefined) , the value recorded as its EC90 is 556

Per the record, O=C1CCCCCCCCCCC1S(=O)(=O)Nc1ccc(Cl)cc1 (centres undefined) has EC90 of 57

Documented EC90 of COC(=O)Nc1nc2ccccc2[nH]1 : 2.82
